Measured GI50 by item
tested on: XF498; assay: NCI tumour cell line growth inhibition, 48 h
Calls of active or inactive are those of the source. Rule as the data show it: active = GI50 up to about 1.1 µM and inactive = higher.

Some molecules with known GI50 results, for comparison:
INSERT INTO assay_data (molecule, measurementtarget, observedresult) VALUES
  ('Nc1nc(=O)[nH]c2c1cnn2COCCO', 'XF498', '> 100 µM (inactive)'),
  ('Brc1ccc(N2C[N+](c3ccc(Br)cc3)=NC(c3ccccc3)=N2)cc1', 'XF498', '20.6 µM (inactive)'),
  ('CC1(C)CC(=O)C(=[N+]=[N-])C(=O)C1', 'XF498', '> 100 µM (inactive)');

Query :: Return GI50 for the following molecule: `NC(=O)c1ccc(Cl)c([N+](=O)[O-])c1`
Result :: > 100 µM (inactive)

Query :: Return GI50 for the following molecule: COC(=O)C1C(=O)N(CCc2c[nH]c3ccccc23)C[C@@H]2CCC(=O)C[C@H]12 (stereo not given in full)
Result :: > 100 µM (inactive)
